Test system: UACC-257 melanoma
Experiment: NCI-60 one-dose screen, 48 h (100 = growth as untreated, 0 = no growth, -100 = all killed)
Details: 10 µM
Compounds without any hit were thinned out: in the full panel of roughly 83,000, 20% have a hit.

COMPOUND: Cc1ccc(/C=C/CC(=O)Nc2ccc(C(=O)Nc3ccc(F)cc3N)nc2)cn1
growth (%): 32.9

COMPOUND: Cc1nn(-c2ccc(Br)cc2)c2nc(CCl)[nH]c(=O)c12
growth (%): 101

COMPOUND: Clc1ccc(-c2nc3ccc(/C(=N\N=C\c4ccccc4)c4ccccc4)cc3[nH]2)cc1
growth (%): 101

COMPOUND: CC1(C)CC[C@]2(C(=O)N3CCCN(CC#N)CC3)CC[C@]3(C)C(=CC[C@@H]4[C@@]5(C)CC[C@H](O)C(C)(C)[C@@H]5CC[C@]43C)[C@H]2C1
growth (%): 50.6

COMPOUND: COc1ccc(-c2oc3cc(O)cc(O)c3c(=O)c2OC)cc1O
growth (%): 78.8

COMPOUND: CCOC(=O)C1=C(C)Nc2nnc(Nc3ccccc3)n2C1c1ccccc1 (configuration not stated)
growth (%): 97

COMPOUND: Cc1ccc(C2CC(c3ccc(Nc4nc(NCCO)nc(Nc5ccc(Cl)cc5)n4)cc3)=Nc3c(N)nc(N)nc3N2)cc1 (configuration not stated)
growth (%): 113

COMPOUND: C#C[C@]1(O)CC[C@H]2[C@@H]3CC=C4c5sc(C6CCOCC6)nc5CC[C@]4(C)[C@H]3CC[C@@]21C
growth (%): 78.3

COMPOUND: COc1ccc2c(ccn2C(=O)N2c3ccccc3Sc3ccccc32)c1
growth (%): 70.3

COMPOUND: COC[C@]12CC[C@@H](C)[C@H](C)[C@H]1C1=CC[C@@H]3[C@@]4(C)CCCNC(C)(C)[C@@H]4CC[C@@]3(C)[C@]1(C)CC2
growth (%): 20.3

COMPOUND: CS(=O)(=O)c1ccc(-c2nn(-c3ccccc3)cc2/C=N/NC(=O)c2ccncc2)cc1
growth (%): 96.7

COMPOUND: Oc1ccc(CSc2nnc(-c3ccc(Cl)cc3)o2)c2cccnc12
growth (%): 18.8

COMPOUND: O=C(COc1cccc2cccnc12)Nc1ccc(C(=O)/C=C/c2ccc(Cl)cc2)cc1
growth (%): 99.8

COMPOUND: CCNC(=O)Oc1ccc(/C(=C(/C)c2ccccc2)c2ccc(OCCN3CCCC3)cc2)cc1
growth (%): -3.88

COMPOUND: NS(=O)(=O)c1ccc(Nc2nc(N/N=C/c3ccc(F)cc3)nc(Nc3ccccc3)n2)cc1
growth (%): 47.2

COMPOUND: Oc1ccc(CSc2nnc(-c3ccc(Br)cc3)n2-c2ccccc2)c2cccnc12
growth (%): 25.2

COMPOUND: O=C1c2c(c3c4cc(Br)ccc4[nH]c3c3ccc4ccccc4c23)C(=O)N1CCN1CCCCC1
growth (%): 93

COMPOUND: CCN1C(=O)N(CC)C2SC(N/N=C/c3ccc(OC)cc3)=NC21 (configuration not stated)
growth (%): 80.4

COMPOUND: O=C1Nc2cc(OC(F)(F)F)ccc2Oc2ccc(-c3ccnc(N4CC[C@H](O)C4)c3)cc21
growth (%): 72

COMPOUND: Cc1ccc(/C=C/CC(=O)Nc2ccc(C(=O)Nc3ccc(F)cc3N)cc2)cn1
growth (%): 52.4

COMPOUND: O=C(c1ccc(O)cc1)[C@@H]1[C@@H]2CCCN2[C@@]2(C(=O)N(C(=O)c3ccc(F)cc3)c3ccccc32)[C@H]1c1ccc(F)cc1
growth (%): 103

COMPOUND: CN1CCN(c2ccc3c(c2)nc(NNC(=O)c2ccncn2)c2cccn23)CC1
growth (%): 42.8

COMPOUND: CC1CCN(S(=O)(=O)c2ncsc2-c2ccccc2)CC1
growth (%): 106

COMPOUND: Cc1cn(-c2cc(NC(=O)c3cncc(C#Cc4cnc5ccc(O[C@@H]6CCOC6)nn45)c3)cc(C(F)(F)F)c2)cn1
growth (%): -19

COMPOUND: COc1ccc(NC2=C(Cl)C(=O)C(C)=C(C)C2=O)cc1
growth (%): 85.5

COMPOUND: C=C(C)C(=O)O[C@H]1C[C@@]2(C)OC(=CC2=O)/C(C)=C\[C@H]2OC(=O)C(=C)[C@H]12
growth (%): -26.3

COMPOUND: O=C(c1cccc(F)c1)n1ccc2cc(NC(=S)Nc3cccnc3)ccc21
growth (%): 97.4

COMPOUND: C#C[C@]1(O)CC[C@H]2[C@@H]3CC=C4c5sc(Nc6nc(C)cc(OC)n6)nc5CC[C@]4(C)[C@H]3CC[C@@]21C
growth (%): 46.1

COMPOUND: COc1ccc(/C=N/Nc2nc(N/N=C/c3ccc(OC)cc3O)nc(N3CCOCC3)n2)c(O)c1
growth (%): 55.8

COMPOUND: CC(C)=CCc1c2c(c(O)c3c1O[C@]14C(=C[C@@H]5C[C@H]1C(C)(C)O[C@@]4(C/C=C(/C)C(=O)O)C5=O)C3=O)CC(O)C(C)(C)O2 (some centres not stated)
growth (%): -32.5

COMPOUND: Nc1ccc(-c2nnc(SCc3ccc(O)c4ncccc34)o2)cc1
growth (%): -20.4

COMPOUND: CCOC(=O)C1=C(C)Nc2nc3ccccc3n2C1c1ccccc1 (configuration not stated)
growth (%): 97.4

COMPOUND: Cn1ccnc1C(=O)/C=C/c1ccc(C(=O)Nc2ccc(NC(=O)CCNC(=O)c3csc(Br)n3)cc2)cc1
growth (%): 88.6

COMPOUND: NCCN1CCN(c2nc(-c3ccccc3)nc3nc(-c4ccccc4)oc23)CC1
growth (%): 93.4

COMPOUND: O=c1oc2ccc(-c3ccc(F)cc3F)cc2c(=O)n1-c1ccc(F)c(F)c1
growth (%): -14.9

COMPOUND: Oc1ccc(-c2nnc(SCc3ccc(O)c4ncccc34)o2)cc1
growth (%): 1.45

COMPOUND: Oc1ccc(CSc2nnc(-c3cnccn3)o2)c2cccnc12
growth (%): 6.92
